- Tested on: C. albicans opt1Δ
- experiment: Initial peptide uptake rate
- Assay type: cell-based, Candida albicans
- runParameters: 50 mM potassium phosphate buffer (pH 5.0 or 6.5) + 1% glucose, 30°C, 100 μM peptide, TNBS A420, slope 0- to 10-min
Where a SMILES comes first, the peptide text is derived from it.
assayReadout: Uptake rate ± SD

Need Uptake rate ± SD, item CC(C)[C@H](NC(=O)[C@H](Cc1c[nH]c2ccccc12)NC(=O)[C@H](Cc1ccccc1)NC(=O)[C@@H](NC(=O)[C@@H](NC(=O)[C@H](CCCCN)NC(=O)[C@@H](N)CCCCN)C(C)C)C(C)C)C(=O)N[C@@H](CCCCN)C(=O)N[C@@H](Cc1ccccc1)C(=O)N[C@@H](CCCCN)C(=O)O [Peptide P10, Lys-Lys-Val-Val-Phe-Trp-Val-Lys-Phe-Lys] (H-KKVVFWVKFK-OH)
<0.1 nmol min^-1 (mg dry weight)^-1

----------
- System: C. albicans SC5314
- experiment: Initial peptide uptake rate
- Format: cell-based, Candida albicans
- runParameters: SC 5314; cells grown in YNB-SG; 50 mM potassium phosphate buffer (pH 5.0 or 6.5) + 1% glucose, 30°C, 100 μM peptide, residual peptide by TNBS A420, slope 0- to 10-min
Where a SMILES comes first, the peptide text is derived from it.
assayReadout: Uptake rate ± SD

Value lookup for Uptake rate ± SD; key = CC(C)[C@H](NC(=O)[C@H](Cc1c[nH]c2ccccc12)NC(=O)[C@H](Cc1ccccc1)NC(=O)[C@@H](NC(=O)[C@@H](NC(=O)[C@H](CCCCN)NC(=O)[C@@H](N)CCCCN)C(C)C)C(C)C)C(=O)N[C@@H](CCCCN)C(=O)N[C@@H](Cc1ccccc1)C(=O)N[C@@H](CCCCN)C(=O)O [Peptide P10, Lys-Lys-Val-Val-Phe-Trp-Val-Lys-Phe-Lys] (H-KKVVFWVKFK-OH)
<0.1 nmol min^-1 (mg dry weight)^-1

----------
Can you tell me MIC for the items I'm about to list?
- System: C. albicans opt2Δ opt3Δ
- Assay type: cell-based, Candida albicans
- runParameters: RPMI-1640 medium, MOPS pH 7.0, CLSI conditions, turbidity 531 nm, at least 80% decrease
Where a SMILES comes first, the peptide text is derived from it. [ ]: non-standard residue; d: D form. The star is where a group is joined. Fumaryl(OMe) = COC(=O)/C=C/C(=O)*; Dap = NC[C@H](N)C(=O)O

Below, 2 compounds whose answers are already recorded.
COC(=O)/C=C/C(=O)NC[C@H](N)C(=O)N[C@@H](CCCCN)C(=O)N[C@@H](CCCCN)C(=O)N[C@H](C(=O)N[C@H](C(=O)N[C@@H](Cc1ccccc1)C(=O)N[C@@H](Cc1c[nH]c2ccccc12)C(=O)N[C@H](C(=O)N[C@@H](CCCCN)C(=O)N[C@@H](Cc1ccccc1)C(=O)N[C@@H](CCCCN)C(=O)O)C(C)C)C(C)C)C(C)C [Peptide F11] (H-[Dap](Fumaryl(OMe))KKVVFWVKFK-OH; N-terminus assumed) : >128 µg/mL
COC(=O)/C=C/C(=O)NC[C@H](NC(=O)[C@H](CCSC)NC(=O)[C@@H](NC(=O)[C@@H]1CCCN1C(=O)[C@H](CC(C)C)NC(=O)[C@@H](N)CCCCN)C(C)C)C(=O)O [Peptide F6, Lys-Leu-Pro-Val-Met-FMDP] (H-KLPVM[Dap](Fumaryl(OMe))-OH; N-terminus and C-terminus assumed) : >128 µg/mL

Okay, now this compound:
# MIC lookup, item CC(C)[C@H](NC(=O)[C@H](Cc1c[nH]c2ccccc12)NC(=O)[C@H](Cc1ccccc1)NC(=O)[C@@H](NC(=O)[C@@H](NC(=O)[C@H](CCCCN)NC(=O)[C@@H](N)CCCCN)C(C)C)C(C)C)C(=O)N[C@@H](CCCCN)C(=O)N[C@@H](Cc1ccccc1)C(=O)N[C@@H](CCCCN)C(=O)O [Peptide P10, Lys-Lys-Val-Val-Phe-Trp-Val-Lys-Phe-Lys] (H-KKVVFWVKFK-OH)
64 µg/mL
